# subjectOfTest: HDAC1 enzyme (Homo sapiens, UniProt Q13547)
# Construct: transducing full length HDAC1 and HDAC6 genes into Sf-9 insect cells; GST; purchased SignalChem; host or cells: Sf-9 insect cells
# Sequence (Q13547 whole entry): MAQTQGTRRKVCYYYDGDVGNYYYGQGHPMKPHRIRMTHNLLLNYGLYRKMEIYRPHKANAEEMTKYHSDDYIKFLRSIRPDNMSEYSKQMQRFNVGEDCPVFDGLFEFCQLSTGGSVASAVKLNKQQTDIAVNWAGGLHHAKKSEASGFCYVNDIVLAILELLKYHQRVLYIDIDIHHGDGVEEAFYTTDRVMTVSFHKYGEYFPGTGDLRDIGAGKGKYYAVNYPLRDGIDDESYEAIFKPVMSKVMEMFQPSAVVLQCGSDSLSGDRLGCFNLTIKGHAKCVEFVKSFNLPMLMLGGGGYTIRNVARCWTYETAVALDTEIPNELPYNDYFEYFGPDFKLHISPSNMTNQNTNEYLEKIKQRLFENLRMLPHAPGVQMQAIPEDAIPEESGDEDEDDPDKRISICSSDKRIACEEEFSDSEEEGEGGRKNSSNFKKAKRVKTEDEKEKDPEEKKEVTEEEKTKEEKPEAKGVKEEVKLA
# protocolDescription: HDAC1/6 Enzyme Inhibitory Assay (HDAC-Glo I/II Assay kit), HDAC1
# Format: biochemical
# protocolConditions: 1 μM test compound; wells without enzyme = 100% inhibition; read-out: HDAC1 inhibitory rate (%) (1 μM)
measuredAttribute: inhibition at 1 µM (%)
State just the number; it will be interpreted in %.

Before answering, review these 6 worked examples.
compound | inhibition at 1 µM, %
CC(C)(C)OC(=O)N[C@@H]1CCCC[C@@H]1N1Cc2ccc(-c3noc(C(F)(F)F)n3)cc2C1=O (relative stereo) [Example 198] | 26
CN1CC(C(=O)N[C@@H]2CCCC[C@H]2N2Cc3ccc(-c4noc(C(F)(F)F)n4)cc3C2=O)CC1=O (stereo partly shown) [Example 120] | -3
CN1CC(C)(C(=O)N[C@@H]2CCCC[C@H]2N2Cc3ccc(-c4noc(C(F)(F)F)n4)cc3C2=O)C1 [Example 196] | 4
COc1ccc([C@@H]2CNCC[C@H]2N2Cc3ccc(-c4noc(C(F)(F)F)n4)cc3C2=O)cc1 (relative stereo) [Example 55] | 95
O=C(Cc1ccc(F)cc1)N1CC(N2Cc3ncc(-c4noc(C(F)(F)F)n4)cc3C2=O)C1 [Example 77] | 30
CC1(C(=O)N[C@@H]2CCCC[C@H]2N2Cc3ccc(-c4noc(C(F)(F)F)n4)cc3C2=O)CNC1 [Example 194] | 3

Task item: Looking for the measured inhibition at 1 µM of O=C(N[C@@H]1CCCC[C@H]1N1Cc2ccc(-c3noc(C(F)(F)F)n3)cc2C1=O)C1CCOCC1 [Example 37] , can you help?
Reply: 1

Task item: Looking for the measured inhibition at 1 µM of O=C(N[C@H]1CCOC[C@@H]1N1Cc2ccc(-c3noc(C(F)(F)F)n3)cc2C1=O)[C@@H]1CC1(F)F [Example 201] , can you help?
Reply: 16

Task item: Looking for the measured inhibition at 1 µM of O=C(c1ccccc1)N1CCCC(N2Cc3ncc(-c4noc(C(F)(F)F)n4)cc3C2=O)C1 (stereo not shown) [Example 40] , can you help?
Reply: 56

Task item: Looking for the measured inhibition at 1 µM of O=C(N[C@@H]1CCOC[C@H]1N1Cc2ccc(-c3noc(C(F)(F)F)n3)cc2C1=O)[C@@H]1CCOC1 [Example 206] , can you help?
Reply: 5

Task item: Looking for the measured inhibition at 1 µM of O=C1c2cc(-c3noc(C(F)(F)F)n3)ccc2CN1[C@@H]1CCNC[C@H]1c1ccc(F)c(F)c1 (relative stereo) [Example 46] , can you help?
Reply: 94

Task item: Looking for the measured inhibition at 1 µM of CC(=O)N1CCCC(N2Cc3ncc(-c4noc(C(F)(F)F)n4)cc3C2=O)C1 (stereo not shown) [Example 39] , can you help?
Reply: 23
